FYI, the data here is from patent US10508085B2.

target: human IDO (IDO1-expressing HEK293 cells) (Homo sapiens, UniProt P14902); construct: expressed in transfected cells; experiment: Cell based kynurenine assay, IDO1-expressing HEK293 cell clones; settings: IDO1-expressing HEK293 cells, 24 hours incubation; geometric mean; read-out: HEK293 IDO1 Kynurenine GMean IC50 (μM) (Cellular Assay)
Sequence (P14902 whole entry): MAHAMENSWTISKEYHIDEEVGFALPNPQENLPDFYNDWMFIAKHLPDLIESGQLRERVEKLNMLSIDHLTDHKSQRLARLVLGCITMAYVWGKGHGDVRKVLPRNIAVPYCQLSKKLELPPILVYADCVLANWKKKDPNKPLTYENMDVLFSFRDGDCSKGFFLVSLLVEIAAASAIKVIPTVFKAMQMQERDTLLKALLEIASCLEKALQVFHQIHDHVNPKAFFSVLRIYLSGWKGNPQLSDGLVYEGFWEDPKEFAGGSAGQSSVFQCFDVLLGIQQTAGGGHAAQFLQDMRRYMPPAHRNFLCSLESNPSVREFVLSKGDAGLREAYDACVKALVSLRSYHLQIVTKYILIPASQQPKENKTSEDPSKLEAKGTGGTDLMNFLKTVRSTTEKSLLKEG
quantity name: IC50

CC(C)C(=O)N1CCC(C(F)(F)C(O)c2c(F)c(Cl)cc3cn[nH]c23)CC1 (centres unmarked) ... 0.0001 to 10 µM

Need IC50 for each of these compounds.
1. OC(c1cccc2cncn12)C1(F)CCC(F)(F)CC1 (centres unmarked)
2. OC(c1cccc2cncn12)C1CCCCC1 (centres unmarked)
3. OC(CC1CCCCC1)c1cc(Cl)cc2cn[nH]c12 (centres unmarked)
4. CC(C)(C)C(O)c1c(Cl)c(Cl)cc2cn[nH]c12 (centres unmarked)

Reply text:
1. > 10 µM
2. 0.0001 to 10 µM
3. 0.0001 to 10 µM
4. 0.0001 to 10 µM

----------
molecular target: human TDO (TDO-expressing HEK293 cells) (Homo sapiens, UniProt P48775); construct: expressed in transfected cells; test: Cell based kynurenine assay, TDO-expressing HEK293 cell clones; settings: TDO-expressing HEK293 cells, 24 hours incubation; geometric mean; read-out: HEK293 TDO Kynurenine GMean IC50 (μM) (Cellular Assay)
Sequence (P48775 whole entry): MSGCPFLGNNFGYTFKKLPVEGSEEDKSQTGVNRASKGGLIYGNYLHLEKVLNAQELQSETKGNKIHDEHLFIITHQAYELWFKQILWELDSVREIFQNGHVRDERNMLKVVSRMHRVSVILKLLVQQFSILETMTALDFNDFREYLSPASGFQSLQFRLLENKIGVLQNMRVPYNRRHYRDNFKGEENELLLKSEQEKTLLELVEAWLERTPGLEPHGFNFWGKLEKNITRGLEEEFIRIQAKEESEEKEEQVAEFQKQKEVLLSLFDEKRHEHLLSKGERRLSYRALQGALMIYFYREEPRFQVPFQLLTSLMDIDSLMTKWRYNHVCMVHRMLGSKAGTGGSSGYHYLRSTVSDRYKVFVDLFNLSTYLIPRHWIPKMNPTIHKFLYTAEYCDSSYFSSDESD
Could you please report measured IC50 for the items listed next?

CC(C)(C1CCN(C(=O)Nc2cccnc2)CC1)C(O)c1cc(Cl)cc2cn[nH]c12 (stereo not drawn) ... 0.0001 to 10 µM
O=S1(=O)CC(O)(c2cc(Cl)cc3cn[nH]c23)C1 ... 0.0001 to 10 µM
CC(C)(C1CCN(C(=O)Nc2ccccc2C#N)CC1)C(O)c1cc(Cl)cc2cn[nH]c12 (stereo not drawn) ... 0.0001 to 10 µM

Need IC50 for each of these molecules.
1. CC1(C)CN(c2cc(C(F)(F)F)cc3cn[nH]c23)CCN1S(C)(=O)=O
2. OC(c1c(F)c(Cl)cc2cn[nH]c12)C(F)(F)C1CCOCC1 (stereo not drawn)
3. OC1(c2cc(Cl)cc3cn[nH]c23)CC2(CCC2)C1

Reply text:
1. 0.0001 to 10 µM
2. 0.0001 to 10 µM
3. 0.0001 to 10 µM

----------
target: human TDO (TDO-expressing HEK293 cells) (Homo sapiens); construct: expressed in transfected cells; experiment: Cell based kynurenine assay, TDO-expressing HEK293 cell clones; conditions: TDO-expressing HEK293 cells, 24 hours, geometric mean; read-out: HEK293 TDO Kynurenine GMean IC50 (μM) (Cellular Assay)
quantity name: IC50

Example entries begin here.
CCC(=O)N1CCC(C(C)(C)C(O)c2c(F)c(Cl)cc3cn[nH]c23)CC1 (stereo not shown) [Compound P-0421] ... 0.0001 to 10 µM
CC(C)(C1CCN(C(=O)c2cccnc2)CC1)[C@H](O)c1cc(Cl)cc2cn[nH]c12 [Compound P-0536] ... 0.0001 to 10 µM
CC(C)(C1CCN(C(=O)CC(F)(F)F)CC1)[C@H](O)c1cc(Cl)cc2cn[nH]c12 [Compound P-0531] ... 0.0001 to 10 µM
O=C(Cc1ccc(F)c(Cl)c1)N1CCC(C(F)(F)C(O)c2cc(Cl)cc3cn[nH]c23)CC1 (stereo not shown) [Compound P-0524] ... 0.0001 to 10 µM
CC(C)(C(O)c1cc(Cl)cc2cn[nH]c12)[C@H]1C[C@H]2CC[C@@H](C1)N2C(=O)Nc1ccc(F)cc1 (stereo partly shown) [Compound P-0440] ... 0.0001 to 10 µM

Need IC50 for each of these molecules.
1. O=C(Cc1ccnc(Cl)c1)N1CCC(C(F)(F)C(O)c2cc(Cl)cc3cn[nH]c23)CC1 (stereo not shown) [Compound P-0525]
2. CC(C)(C1CCN(C(=O)CC(F)(F)F)CC1)C(O)c1cc(Cl)cc2cn[nH]c12 (stereo not shown) [Compound P-0459]

Reply text:
1: 0.0001 to 10 µM; 2: 0.0001 to 10 µM

----------
biological target: Human Indoleamine 2,3-dioxygenase (IDO) (Homo sapiens, UniProt P14902); construct: His tag (N); made in house; host or cells: E. coli; assay: Human IDO enzymatic assay (kynurenine level); type: biochemical; settings: 6 nM IDO, 10 μM L-Trp; geometric mean; read-out: IDO1 GMean: IC50 (μM) (Biochemical Assay)
Could you please report measured IC50 for the items listed next?

Example entries begin here.
OC(c1c2c(cc3cn[nH]c13)CC2)C1CC2CCC1C2 (stereo not shown) ... 0.0001 to 10 µM
CC(C)(C1CCN(C(=O)Nc2ccccc2Cl)CC1)C(O)c1cc(Cl)cc2cn[nH]c12 (stereo not shown) ... 0.0001 to 10 µM

Need IC50 for each of these compounds.
1. CC(C)(C1CCN(C(=O)Nc2ccccc2)CC1)[C@@H](O)c1cc(Cl)cc2cn[nH]c12
2. OC1(c2cc(C(F)(F)F)cc3cn[nH]c23)CC2(CCC2)C1
3. CC(C)(C1CCN(S(C)(=O)=O)CC1)C(O)c1cc(Cl)cc2cn[nH]c12 (stereo not shown)
4. O=C(Nc1ccc(C(F)(F)F)cc1)N1CCC(C(F)(F)C(O)c2cc(Cl)cc3cn[nH]c23)CC1 (stereo not shown)
5. O=C(NCC(F)(F)F)N1CCC(C(F)(F)C(O)c2c(F)c(Cl)cc3cn[nH]c23)CC1 (stereo not shown)

Reply text:
1: 10 to 100 µM; 2: 0.0001 to 10 µM; 3: 0.0001 to 10 µM; 4: 0.0001 to 10 µM; 5: 0.0001 to 10 µM

Need IC50 for each of these compounds.
1. CC(C)(C1CCN(C(=O)C2CC2)CC1)C(O)c1cc(Cl)cc2cn[nH]c12 (stereo not shown)
2. C[C@@H](CO)NC(=O)N1CCC(C(C)(C)[C@H](O)c2cc(Cl)cc3cn[nH]c23)CC1

Reply text:
1. 0.0001 to 10 µM
2. 0.0001 to 10 µM

Need IC50 for each of these compounds.
1. OC1(c2cc(Cl)cc3cn[nH]c23)CCC1
2. O=C(c1ccc(C(F)(F)F)nc1)N1CCC(C(F)(F)[C@H](O)c2c3c(cc4cn[nH]c24)CC3)CC1
3. CC(C)(C1CCN(C(=O)NCC(F)(F)F)CC1)[C@H](O)c1cc(Cl)cc2cn[nH]c12
4. CS(=O)(=O)N1CCC(C2(C(O)c3c(F)c(Cl)cc4cn[nH]c34)CC2)CC1 (stereo not shown)
5. OC(CC1C2CCC1CNC2)c1cc(Cl)cc2cn[nH]c12 (stereo not shown)
6. CC(C)(C)OC(=O)N1CCC(C(F)(F)[C@@H](O)c2cc(Cl)cc3cn[nH]c23)CC1
7. CS(=O)(=O)N1CCC(C(F)(F)C(O)c2c(F)c(Cl)cc3cn[nH]c23)CC1 (stereo not shown)

Reply text:
10 to 100 µM
0.0001 to 10 µM
0.0001 to 10 µM
0.0001 to 10 µM
10 to 100 µM
0.0001 to 10 µM
0.0001 to 10 µM

----------
biological target: human TDO (TDO-expressing HEK293 cells) (Homo sapiens); construct: expressed in transfected cells; experiment: Cell based kynurenine assay, TDO-expressing HEK293 cell clones; conditions: TDO-expressing HEK293 cells, 24 hours, geometric mean; read-out: HEK293 TDO Kynurenine GMean IC50 (μM) (Cellular Assay)
quantity name: IC50

Example entries begin here.
CNC(=O)N1CCC(C(C)(C)[C@H](O)c2cc(Cl)cc3cn[nH]c23)CC1 ... 0.0001 to 10 µM
CC(C)(C1CCN(C(=O)CN2CCS(=O)(=O)CC2)CC1)C(O)c1cc(Cl)cc2cn[nH]c12 (stereo not drawn) ... 0.0001 to 10 µM

Need IC50 for each of these compounds.
1. CC(C)(C1CCN(C(=O)c2ccc(N3CCOCC3)nc2)CC1)[C@H](O)c1cc(Cl)cc2cn[nH]c12
2. CC(C)(C1CCN(C(=O)Nc2cccc(F)c2)CC1)[C@@H](O)c1cc(Cl)cc2cn[nH]c12

Reply text:
1. 0.0001 to 10 µM
2. 0.0001 to 10 µM

----------
biological target: Human Tryptophan 2,3-dioxygenase (TDO) (Homo sapiens); construct: His tag (N); made in house; host or cells: E. coli; experiment: Human TDO enzymatic assay (kynurenine level); assay type: biochemical; settings: biochemical assay; comparative examples, 4,6 versus 5,7 indazole; read-out: TDO
quantity name: pIC50
Answers are plain numbers, as −log10 of the molar value.

Need pIC50 for each of these compounds.
1. COC12CCC(C(O)c3cc(Cl)cc4[nH]ncc34)(CC1)CC2 (stereo not drawn) [drawing 813]
2. OC(c1cc(Cl)cc2cn[nH]c12)C1CCCCC1 (stereo not drawn) [drawing 810]
3. OC1(c2cc(Cl)cc3cn[nH]c23)CC2(CCOCC2)C1 [drawing 820]
4. CC(C)(C1CCN(S(C)(=O)=O)CC1)C(O)c1cc(Cl)cc2cn[nH]c12 (stereo not drawn) [drawing 814]
5. OC(c1cc(Cl)cc2[nH]ncc12)C1CCCCC1 (stereo not drawn) [drawing 811]

Reply text:
1. 6.80
2. 6.77
3. 6.66
4. 6.82
5. 5.22

Need pIC50 for each of these compounds.
1. OC1(c2cc(Cl)cc3[nH]ncc23)CC2(CCC2)C1 [drawing 819]
2. COC12CCC(C(O)c3cc(Cl)cc4cn[nH]c34)(CC1)CC2 (stereo not drawn) [drawing 812]
3. CC(C)(C1CCOCC1)C(O)c1cc(Cl)cc2[nH]ncc12 (stereo not drawn) [drawing 817]
4. CC(C)(C1CCN(S(C)(=O)=O)CC1)C(O)c1cc(Cl)cc2[nH]ncc12 (stereo not drawn) [drawing 815]
5. OC1(c2cc(Cl)cc3[nH]ncc23)CC2(CCOCC2)C1 [drawing 821]
6. OC1(c2cc(Cl)cc3cn[nH]c23)CC2(CCC2)C1 [drawing 818]
7. CC(C)(C1CCOCC1)C(O)c1cc(Cl)cc2cn[nH]c12 (stereo not drawn) [drawing 816]

Reply text:
1. 7.40
2. 5.93
3. 7.10
4. 7.00
5. 6.74
6. 7.40
7. 5.93
